// provenance: PubChem BioAssay (Tox21)

assay: qHTS assay to identify small molecule antagonists of the androgen receptor (AR) signaling pathway using the MDA cell line in the presence of 0.5 nM R1881 - cell viability counter screen (AID 1259242); details: MDA-kb2 viability, CellTiter-Fluor protease fluorescence, 16 h; series mostly up to 92.4 µM; further: nearly all actives have a fitted effect of over 45% in size
Inconclusive results are not listed. Active and inactive are the calls of the source. The call rests on the fitted dose curve; in most records, active means well fitted cell-killing curve with a large enough effect in the repeat runs; inconclusive means weak or mixed curves, or effect the other way; inactive means flat fitted curve, though single readings scatter.
Recorded metric: viability change, negative = cytotoxic

[[record]]
compound = "COCC(=O)N(c1c(C)cccc1C)N1CCOC1=O"
reported_value = "inactive"

[[record]]
compound = "CCCCOC(=O)[C@@H](C)Oc1ccc(Oc2ccc(C#N)cc2F)cc1"
reported_value = "inactive"

[[record]]
compound = "CC1=C(C(=O)Nc2ccccc2)S(=O)(=O)CCO1"
reported_value = "inactive"

[[record]]
compound = "COc1ccc(C(=O)N2CCCC2=O)cc1"
reported_value = "inactive"

[[record]]
compound = "OCCBr"
reported_value = "inactive"


Prompt: Would you mind telling me what viability change, negative = cytotoxic value was observed for CCCCOP(=O)(O)OCCCC ?
Response: inactive

Prompt: Would you mind telling me what viability change, negative = cytotoxic value was observed for O=NN1CCCCC1 ?
Response: inactive

Prompt: Would you mind telling me what viability change, negative = cytotoxic value was observed for COC(=O)c1ccccc1S(=O)(=O)NC(=O)Nc1nc(C)cc(C)n1 ?
Response: inactive

----------
Measured Potency accompanies every entry in the list below.
assay: qHTS RealTime-Glo MT Cell Viability Assay in HEK293 cells - 40 hour (AID 1224874); settings: RealTime-Glo luminescence; further: potency means the concentration at half of the fitted maximal effect; nearly all actives have a fitted effect of over 50% in size
Results filed as inconclusive are left out. Activity calls are given as the source filed them. Calls come from the whole dose curve; as a rule, active = well fitted cell-killing curve with a large enough effect in the repeat runs; inconclusive = weak or mixed curves, or effect the other way; inactive = flat fitted curve, though single readings scatter.

Prompt: Would you mind telling me what Potency value was observed for O=[N+]([O-])c1cccc2c([N+](=O)[O-])cccc12 ?
Response: 49.2 µM (active)

----------
experiment: qHTS RealTime-Glo MT Cell Viability Assay in HEK293 cells - 24 hour (AID 1224886); settings: RealTime-Glo luminescence; series mostly up to 76.8 µM; further: top concentration of the series differs between compounds; nearly all actives have a fitted effect of over 50% in size
Inconclusive results are not listed. Calls of active or inactive are those of the source. The call rests on the fitted dose curve; in most records, active means well fitted cell-killing curve with a large enough effect in the repeat runs; inconclusive means weak or mixed curves, or effect the other way; inactive means flat fitted curve, though single readings scatter.
Recorded metric: outcome

These solved cases illustrate the format of a correct answer.
[[record]]
compound = "ClC(Cl)(Cl)C(Cl)(Cl)Cl"
recorded_metric = "outcome"
reported_value = "inactive"

[[record]]
compound = "O=C(O)C(Br)CBr (stereo not drawn)"
recorded_metric = "outcome"
reported_value = "inactive"

[[record]]
compound = "O=[N+]([O-])c1cccc(O)c1"
recorded_metric = "outcome"
reported_value = "inactive"

[[record]]
compound = "CCC#N"
recorded_metric = "outcome"
reported_value = "inactive"

[[record]]
compound = "C[N+](=O)[O-]"
recorded_metric = "outcome"
reported_value = "inactive"


Prompt: Would you mind telling me what outcome value was observed for O=C1OC(=O)C2C1C1(Cl)C(Cl)=C(Cl)C2(Cl)C1(Cl)Cl (stereo not drawn) ?
Response: inactive

Prompt: Would you mind telling me what outcome value was observed for CCOP(=S)(OCC)Oc1nc(Cl)n(C(C)C)n1 ?
Response: inactive

Prompt: Would you mind telling me what outcome value was observed for OC(c1ccccc1)(c1ccccc1)C1CCNCC1 ?
Response: inactive

Prompt: Would you mind telling me what outcome value was observed for CNC(=O)O/N=C(\C)SC ?
Response: inactive

----------
assay: qHTS assay to identify small molecule agonists of the TGF-beta/Smad signaling pathway (AID 1346859); details: SBE-bla HEK293T, TGF-beta/Smad beta-lactamase reporter, 5 h; series mostly up to 76.8 µM
Inconclusive results are not listed. Active and inactive are the calls of the source. The call rests on the fitted dose curve; in most records, active means well fitted activation curve with a large enough effect in the signal ratio in the repeat runs (not every such curve was filed as active); inconclusive means weak or mixed curves; inactive means flat fitted curve, though single readings scatter; the % refers to the signal ratio.
Recorded metric: activation

[[record]]
compound = "COC(=O)c1c(C(F)F)nc(C(F)(F)F)c(C2=NCCS2)c1CC(C)C"
recorded_metric = "activation"
reported_value = "inactive"

[[record]]
compound = "O=C(N[C@H]1CN2CCC1CC2)c1cc2ccoc2cn1"
recorded_metric = "activation"
reported_value = "inactive"

[[record]]
compound = "O=C(CCN1CC1)OCC(CO)(COC(=O)CCN1CC1)COC(=O)CCN1CC1"
recorded_metric = "activation"
reported_value = "inactive"

[[record]]
compound = "CC(C)(C)NCC(O)c1cc(Cl)c(N)c(Cl)c1 (configuration not stated)"
recorded_metric = "activation"
reported_value = "inactive"

[[record]]
compound = "CCN(Cc1ccc(Cl)nc1)/C(=C/[N+](=O)[O-])NC"
recorded_metric = "activation"
reported_value = "inactive"


Prompt: Would you mind telling me what activation value was observed for O=NN1CCN(N=O)CC1 ?
Response: inactive
